- System: RORγ ligand binding domain (Homo sapiens (Human), UniProt P51449)
- Sequence (P51449 258-518): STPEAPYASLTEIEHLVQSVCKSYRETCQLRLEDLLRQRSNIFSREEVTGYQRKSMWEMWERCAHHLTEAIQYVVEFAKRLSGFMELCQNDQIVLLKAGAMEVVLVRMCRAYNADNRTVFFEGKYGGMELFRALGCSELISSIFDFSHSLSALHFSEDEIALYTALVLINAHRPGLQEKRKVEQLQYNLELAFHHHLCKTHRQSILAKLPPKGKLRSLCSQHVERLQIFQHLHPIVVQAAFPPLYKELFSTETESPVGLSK
- Assay Explanation: RORγ FRET assay (SRC-1 peptide binding to RORγ ligand binding domain)
Measurement Label: pIC50
Field pIC50 (float): negative decimal logarithm of the concentration in molar.

Query: pIC50; subject: O=C(O)c1ccc(-n2cc(Cc3c(Cl)cccc3C(F)(F)F)c3cccnc32)cc1
6.71

###

- System: RORγ ligand binding domain (Homo sapiens (Human), UniProt P51449)
- Assay Explanation: RORγ FRET assay (SRC-1 peptide binding to RORγ ligand binding domain)
- Condition Summary: read-out: RORγ FRET - Mean IC50
Measurement Label: IC50 (µM)
Give a bare numeral; the unit µM is implied.

So what does the record say about IC50 for O=C(O)c1ccc(-n2cc(Cc3c(Cl)cccc3C(F)(F)F)c3ccccc32)cc1 ?
0.0718
